# methodDescription: Cytotoxicity assay (resazurin, 3 days), HepG2
# Format: cell-based, human
# experimentalConditions: human; HepG2 cells, 3 days; > = highest concentration tested (5 ppm); read-out: Cytotoxicity CC50 Values HepG2
measurementLabel: CC50 at 3 days

Using the record for COc1ccc([C@@H](O)[C@@H](C)Oc2ccc([C@H]3O[C@H](c4ccc(O[C@H](C)[C@H](O)c5ccc(OC)c(OC)c5)c(OC)c4)[C@H](C)[C@H]3C)cc2OC)cc1OC [Compound 13, manassantin A] , report its CC50 at 3 days.
> 13.7 µM

* * *

Please provide measured CC50 at 3 days for the entries that follow.
# methodDescription: Cytotoxicity assay (resazurin, 3 days), HepG2
# Type: cell-based, human
# experimentalConditions: human

Using the record for "C=CCc1ccc(Oc2cc(/C=C/C=O)cc(O)c2O)cc1" , report its CC50 at 3 days.
> 33.8 µM

Using the record for "CC(C)=CCc1c(O)c(CC=C(C)C)c2occ(-c3ccc(O)c(O)c3)c(=O)c2c1O" , report its CC50 at 3 days.
> 24.1 µM

Using the record for "O=C(/C=C/c1ccc(O)cc1)CC(=O)/C=C/c1ccc(O)cc1" , report its CC50 at 3 days.
> 32.5 µM

Using the record for "C=C(C)[C@H](CC=C(C)C)Cc1c(O)cc(O)c2c1O[C@H](c1ccc(O)cc1O)CC2=O" , report its CC50 at 3 days.
> 23.8 µM

Using the record for "O=c1c(-c2ccc(O)cc2)coc2cc(O[C@@H]3O[C@H](CO)[C@@H](O)[C@H](O)[C@H]3O)cc(O)c12" , report its CC50 at 3 days.
> 23.1 µM

Using the record for "COc1ccc([C@H](O)[C@@H](C)Oc2ccc([C@H]3O[C@H](c4ccc5c(c4)OCO5)[C@H](C)[C@H]3C)cc2OC)cc1OC" , report its CC50 at 3 days.
> 18.6 µM

Using the record for "O=c1cc(-c2ccc(O)cc2)oc2cc(O)cc(O)c12" , report its CC50 at 3 days.
> 37 µM

Using the record for "CC(C)=CCc1c(-c2ccc(O)cc2O)oc2c3c(cc(O)c2c1=O)OC(C)(C)C=C3" , report its CC50 at 3 days.
> 23.7 µM

Using the record for C=C[C@H](OC(C)=O)c1ccc(OC(C)=O)cc1 [Compound 11, 1′S-1′-acetoxychavicol acetate] , report its CC50 at 3 days.
> 30 µM

Using the record for "COc1cc(CC/C=C/C(=O)CCc2ccccc2)ccc1O" , report its CC50 at 3 days.
> 32.4 µM

Using the record for "CC(C)=CCc1cc(C(=O)/C=C/c2ccc(O)c(O)c2)c(O)cc1O" , report its CC50 at 3 days.
> 29.2 µM

Using the record for "COc1cc(O)ccc1C(=O)/C=C/c1ccc(O)cc1" , report its CC50 at 3 days.
> 37.1 µM

Using the record for COc1cc(C=CC=O)ccc1O [Compound 8, 4-hydroxy-3-methoxycinnamaldehyde] , report its CC50 at 3 days.
> 57 µM

Using the record for COc1ccc([C@@H](O)[C@@H](C)Oc2ccc([C@H]3O[C@H](c4ccc(O[C@H](C)[C@H](O)c5ccc6c(c5)OCO6)c(OC)c4)[C@H](C)[C@H]3C)cc2OC)cc1OC [Compound 14, manassantin B] , report its CC50 at 3 days.
> 13.9 µM

Using the record for "CC(C)=CCC/C(C)=C/Cc1c(O)ccc(C(=O)/C=C/c2ccc(O)cc2)c1O" , report its CC50 at 3 days.
> 25.4 µM

Using the record for "O=C1c2ccc(O)cc2OC[C@H]1Cc1ccc(O)c(O)c1" , report its CC50 at 3 days.
> 35 µM

Using the record for O=c1c(-c2ccc(O[C@@H]3O[C@H](CO)[C@@H](O)[C@H](O)[C@H]3O)cc2)coc2cc(O)cc(O)c12 [Compound 22, sophoricoside] , report its CC50 at 3 days.
> 23.1 µM

Using the record for "COc1ccc(-c2cc(=O)c3c(O)c(OC)c(O)cc3o2)cc1OC" , report its CC50 at 3 days.
> 29.1 µM

Using the record for "C=CCc1ccc(O)c(-c2ccc(O)c(CC=C)c2)c1" , report its CC50 at 3 days.
> 37.6 µM

* * *

# System: T. b. brucei strain 427 (bloodstream forms)
# methodDescription: Anti-trypanosomal activity on T. brucei (resazurin growth inhibition, 3 days)
# Type: cell-based, Trypanosoma brucei
# experimentalConditions: Trypanosoma brucei, -log IC50 [M], experimental; read-out: pIC50 Tbr(exp) (converted)
Please provide measured IC50 for the entries that follow.
Report as a plain number; the unit M is understood.

Using the record for COc1cc(C=CC=O)ccc1O [Compound 8, 4-hydroxy-3-methoxycinnamaldehyde] , report its IC50.
1.64e-05

Using the record for "C=CCc1ccc(O)c(-c2ccc(O)c(CC=C)c2)c1" , report its IC50.
8.77e-06

Using the record for "CC(C)=CCc1c(-c2ccc(O)cc2O)oc2c3c(cc(O)c2c1=O)OC(C)(C)C=C3" , report its IC50.
3.4e-06

Using the record for O=c1c(-c2ccc(O[C@@H]3O[C@H](CO)[C@@H](O)[C@H](O)[C@H]3O)cc2)coc2cc(O)cc(O)c12 [Compound 22, sophoricoside] , report its IC50.
6.5e-06

Using the record for "COc1ccc(-c2cc(=O)c3c(O)c(OC)c(O)cc3o2)cc1OC" , report its IC50.
8.15e-06

Using the record for "COc1ccc([C@H](O)[C@@H](C)Oc2ccc([C@H]3O[C@H](c4ccc5c(c4)OCO5)[C@H](C)[C@H]3C)cc2OC)cc1OC" , report its IC50.
5.61e-06

Using the record for "O=c1cc(-c2ccc(O)cc2)oc2cc(O)cc(O)c12" , report its IC50.
1.1e-05

Using the record for "O=C(/C=C/c1ccc(O)cc1)CC(=O)/C=C/c1ccc(O)cc1" , report its IC50.
9.84e-06

Using the record for "COc1cc(CC/C=C/C(=O)CCc2ccccc2)ccc1O" , report its IC50.
2.48e-06

Using the record for COc1ccc([C@@H](O)[C@@H](C)Oc2ccc([C@H]3O[C@H](c4ccc(O[C@H](C)[C@H](O)c5ccc6c(c5)OCO6)c(OC)c4)[C@H](C)[C@H]3C)cc2OC)cc1OC [Compound 14, manassantin B] , report its IC50.
3.54e-06

Using the record for "CC(C)=CCc1cc(C(=O)/C=C/c2ccc(O)c(O)c2)c(O)cc1O" , report its IC50.
2.17e-06

Using the record for "C=CCc1ccc(Oc2cc(/C=C/C=O)cc(O)c2O)cc1" , report its IC50.
9.89e-06

* * *

Please provide measured pIC50 for the entries that follow.
# System: T. b. brucei strain 427 (bloodstream forms)
# methodDescription: Anti-trypanosomal activity on T. brucei (resazurin growth inhibition, 3 days)
# Format: cell-based, Trypanosoma brucei
# experimentalConditions: Trypanosoma brucei, 72 h, T. b. brucei strain 427 bloodstream forms, 3 days, mean ± SD; read-out: T. brucei IC50
pIC50: −log10 of the molar value.

Using the record for "COc1cc(O)ccc1C(=O)/C=C/c1ccc(O)cc1" , report its pIC50.
< 5.00

Using the record for COc1cc(C=CC=O)ccc1O [Compound 8, 4-hydroxy-3-methoxycinnamaldehyde] , report its pIC50.
< 5.00

Using the record for COc1ccc([C@@H](O)[C@@H](C)Oc2ccc([C@H]3O[C@H](c4ccc(O[C@H](C)[C@H](O)c5ccc6c(c5)OCO6)c(OC)c4)[C@H](C)[C@H]3C)cc2OC)cc1OC [Compound 14, manassantin B] , report its pIC50.
> 5.30

Using the record for "CC(C)=CCc1c(-c2ccc(O)cc2O)oc2c3c(cc(O)c2c1=O)OC(C)(C)C=C3" , report its pIC50.
> 5.30
